# credit: paper PMC6105804

Tested on: C. neoformans
Assay: Broth microdilution susceptibility testing (CLSI M27-A3)
Assay type: cell-based, Cryptococcus neoformans
Conditions: Cryptococcus neoformans, C. neoformans isolate 14116; read-out: MIC
From the text: C. neoformans strains H99, DUMC 118.00, and DUMC 158.03 and C. gattii strains R272 and RSA-MW-3515 were obtained from Duke University. C. albicans 90028, A. fumigatus MYA3626, C. neoformans 14116, C. neoformans 76484, and the pathogenic Cryptococcus reference strains panel (ATCC MP-11) were obtained from the American Type Culture Collection (ATCC; Manassas, VA, USA). The ATCC MP-11 panel consists of strains representing eight molecular types and three subtypes of C. neoformans and C. gattii. […]
observable: log10(MIC) (log10 of the value in µg/mL)
Plainly stated, the numbers are log10 of MIC given in µg/mL.

A selection of reference data follows.
- Nc1ncccc1-c1cc(Cc2ccc(Oc3cccc(F)n3)cc2)no1: -2.40
- C[C@@H]1[C@H](O)[C@@H](C)/C=C/C=C/C=C/C=C/C=C/C=C/C=C/[C@H](O[C@@H]2O[C@H](C)[C@@H](O)[C@H](N)[C@@H]2O)C[C@@H]2O[C@](O)(C[C@@H](O)C[C@@H](O)[C@H](O)CC[C@@H](O)C[C@@H](O)CC(=O)O[C@H]1C)C[C@H](O)[C@H]2C(=O)O [AMB, amphotericin B, reference compound]: -0.60
- Nc1ncccc1-c1cc(Cc2ccc(COc3ccccn3)cc2)no1 [APX001A]: -0.90
- Nc1ncccc1-c1cc(Cc2ccc(OCc3ccccc3)nc2)no1: -1.80
- OC(Cn1cncn1)(Cn1cncn1)c1ccc(F)cc1F [FLC, fluconazole, reference compound]: 0.60

Turning to the following compound.
IN: Dear colleague, I am looking for the recorded log10(MIC) of the following compound: Nc1ncccc1-c1cc(Cc2ccc(OCc3ccccc3)cc2)no1
OUT: -1.51
